Test system: CMA (DNA, G4) TAGGGAGGGTAGGGAGGGT
Test: gel mobility shift
Conditions: 100 mM K+; 40 µM CMA, 80 µM compound

- Molecule smiles: "C[n+]1ccccc1/C=C/c1ccc2[nH]c3ccc(/C=C/c4cccc[n+]4C)cc3c2c1"
  binding: "yes"
- Molecule smiles: "C[n+]1ccnc(/C=C/c2ccc3[nH]c4ccc(/C=C/c5c[n+](C)ccn5)cc4c3c2)c1"
  binding: "yes"
- Molecule smiles: "C[n+]1ccc(-c2c3nc(c(-c4cc[n+](C)cc4)c4ccc([nH]4)c(-c4cc[n+](C)cc4)c4nc(c(-c5cc[n+](C)cc5)c5ccc2[nH]5)C=C4)C=C3)cc1"
  binding: "yes"
- Molecule smiles: "CN(C)c1ccc(Nc2c3ccc(NC(=O)CCN4CCCC4)cc3nc3cc(NC(=O)CCN4CCCC4)ccc23)cc1"
  binding: "yes"

###

Tested on: biotinylated Tel48 (DNA, G4) TTAGGGTTAGGGTTAGGGTTAGGGTTAGGGTTAGGGTTAGGGTTAGGG
Assay: bio-layer interferometry, kinetic
Settings: 100 mM K+; 10 mM Tris, 25 °C; two-site model, Kb = ka/kd; immobilised Tel48
Attribute measured: Kb (M⁻¹)
Please state the figure in M⁻¹; there is no need to write the unit.

Sample answers from the record:
- Molecule smiles: "C[n+]1ccnc(/C=C/c2ccc3[nH]c4ccc(/C=C/c5c[n+](C)ccn5)cc4c3c2)c1"
  Kb / M⁻¹: 529000
- Molecule smiles: "C[n+]1ccc(-c2c3nc(c(-c4cc[n+](C)cc4)c4ccc([nH]4)c(-c4cc[n+](C)cc4)c4nc(c(-c5cc[n+](C)cc5)c5ccc2[nH]5)C=C4)C=C3)cc1"
  Kb / M⁻¹: "1.55e+07"
- Molecule smiles: "C[n+]1ccccc1/C=C/c1ccc2[nH]c3ccc(/C=C/c4cccc[n+]4C)cc3c2c1"
  Kb / M⁻¹: "2.38e+06"

QUERY: Reported Kb, compound "CN(C)c1ccc(Nc2c3ccc(NC(=O)CCN4CCCC4)cc3nc3cc(NC(=O)CCN4CCCC4)ccc23)cc1" : ____
RESULT: 9.84e+06

This collection of values is drawn from paper PMC6337594.
